Data credit: patent US20180186897A1

Target: erythrocytes infected with P. falciparum field isolate 11014
Assay: flow cytometry, staining of IEs
parameter-measured: % parasite recognition
Put down the number, then write its unit next to it.

{"columns": ["binder", "% parasite recognition"],
 "data": [
  ["MGD23 (antibody) VH: QVQLQESGPGLVKPSGTLSLTCSVSGGSISSNKWWSWVRQSPGKGLEWIGEVYQTGITNYNPSLKGRVTMSVDKSKNQFSLRLTSVTAADTAVYYCATISQLRPQGDTEDLPRPSLSAEPGTVIPLGSHVTFVCRGPAGVETFRLERESRFTYNDTEDVSQASPSESEARFRIDSVSEGNAGPYRCLYYKARKWSDQSDYLELLVKGADVTWALPQSQLAPRACPQGELRISTDVFSMNVWGNGTTVTVSS VL: AVRVTQSPTSLSASTGDRVTITCRTSQYVGNYLDWYQQKPGKAPKLLIHGVSTLQNGVPSRFSGSASGTDFTLNITCLQSEDSATYYCQQYYTSPPDFGQGTRLEIK", "6.3%"]
]}

Kindly review the next binder as well.
Problem: Requested field: % parasite recognition. Item: MGD41 (antibody) VH: EVQLVESGPGLVKPSGTLSVTCTISGGSINTDKWWTWVRQPPGKGLEWVGEVLHTGSTNYNPSLRGRVTISVDKSKNQFSLRLSSVTAADTAVYYCATISTLRPQRDIEDLPRPSLSAEPGTVVPLGSHVTFVCRGPVGVQTFRLERESRSTYNDTEDVSQPSPFESEARFRIDSVSEGNAGPYRCIYYKSPKWSDQSDYVELLVKGEDVTWAPPQSQLAPRACPQGELRTSTDIFSMNVWGKGTTVTVSS VL: AIRMTQSPSSLSAFTGDRVTISCRASQDIGNYLDWYHQKPGRAPKLLIHGASTLLTGVPSRFSGSGSGTDFTLNITCLQSGDFGIYYCLQYYSSPPAFGPGTRLEIK
Result: 6.6%
